target: human PKD2-L1 (Wt), homomeric channel (Homo sapiens); construct: full-length isoform 1 in pTracer CMV2, transiently transfected HEK 293T cells; homotetramer; whole-cell patch clamp; assay: whole-cell patch clamp, current potentiation, voltage ramps
Sequence (Q9P0L9 whole entry, canonical isoform): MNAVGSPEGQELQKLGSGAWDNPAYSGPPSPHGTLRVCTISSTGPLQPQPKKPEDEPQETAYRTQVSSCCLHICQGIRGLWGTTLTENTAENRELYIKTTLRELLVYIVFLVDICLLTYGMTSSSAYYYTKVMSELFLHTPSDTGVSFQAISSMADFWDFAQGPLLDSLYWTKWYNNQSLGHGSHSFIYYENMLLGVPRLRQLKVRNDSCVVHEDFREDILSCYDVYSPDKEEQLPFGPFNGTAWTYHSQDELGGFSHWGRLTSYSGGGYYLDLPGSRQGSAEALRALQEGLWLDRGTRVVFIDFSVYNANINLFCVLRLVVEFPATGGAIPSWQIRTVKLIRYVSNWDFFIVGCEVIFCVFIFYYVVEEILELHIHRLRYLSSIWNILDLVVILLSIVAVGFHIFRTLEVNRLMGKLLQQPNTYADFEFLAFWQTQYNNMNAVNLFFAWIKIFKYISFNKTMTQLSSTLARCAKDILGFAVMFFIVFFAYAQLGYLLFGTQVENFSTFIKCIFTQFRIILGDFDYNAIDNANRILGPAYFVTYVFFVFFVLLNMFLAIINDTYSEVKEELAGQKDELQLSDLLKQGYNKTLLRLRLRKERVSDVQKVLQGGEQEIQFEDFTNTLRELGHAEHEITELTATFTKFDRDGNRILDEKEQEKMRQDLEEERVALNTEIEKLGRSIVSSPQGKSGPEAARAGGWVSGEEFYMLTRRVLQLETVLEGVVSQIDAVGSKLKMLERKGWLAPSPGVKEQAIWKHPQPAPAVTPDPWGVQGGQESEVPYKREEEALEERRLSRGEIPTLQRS
Measurement Type: pEC50
pEC50 is a log-scale quantity: -log10 of the concentration expressed in molar.

Record Clc1ccc(C(c2ccc(Cl)cc2)n2cc[n+](CC(OCc3ccc(Cl)cc3Cl)c3ccc(Cl)cc3Cl)c2)cc1 (stereo not shown) [calmidazolium] / human PKD2-L1 (Wt), homomeric channel (Homo sapiens), pEC50 recorded as 5.59
